Tested on: TRPC4 beta (transient receptor potential cation channel C4), mouse
Assay: activators of mouse TRPC4 channel, confirmation, cell-based, Fluo4 calcium, HEK293 TRPC4beta/mu-opioid, duplicates, 10 µM (AID 2426);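 further: percent rise of integrated ratio over buffer wells lacking compound which define 0%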
Details: Fluo4 calcium fluorescence, at 10 µM; hits give high values
Calls of active or inactive are those of the source.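 How the source made its calls: active means fluorescence ratio normalized to control raised more than 50% in primary screen plus both repeat runs; inactive means the rest.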
Outcome measure: activation

> print(dat)
                                   molecule  outcome.measure  recorded.value
1                     CN(C)CCCOc1cccc(Cl)c1       activation    71% (active)
2  CN1CCCC(OC(=O)c2cc(Cl)cc(Cl)c2)C1 (stereo unspecified)       activation   186% (active)
3  CC(=O)Nc1ccc(CN2CCCC(C(=O)c3cccc(C(F)(F)F)c3)C2)cc1 (stereo unspecified)       activation    96% (active)
4    COc1ccc(C(=O)NNC(=S)NC(=O)c2ccccc2)cc1       activation   130% (active)
5  Cc1ccc(-n2cc(CNCC3CC(=O)N(C4CC4)C3)c(-c3cccc(C)c3)n2)cc1 (stereo unspecified)       activation   165% (active)

Please give activation for each item listed below.
1. C=CCn1c(CCNC(=O)c2ccco2)nc2ccccc21
2. CC1CC(C)(C)N(C(=O)CN2C(=O)c3ccccc3C2=O)c2ccccc21 (stereo unspecified)
3. Cc1cc(C)c(CN2CCN(Cc3ccc(C)o3)C(CCO)C2)c(-n2cccn2)c1 (stereo unspecified)
4. Cc1cc(C)c(C)c(OCCCN(C)C)c1
5. COc1ccc(C(CNC(=O)c2cccc(NS(=O)(=O)c3ccc(C)c(F)c3)c2)N(C)C)cc1 (stereo unspecified)

Ans:
1. 165% (active)
2. 149% (active)
3. 75% (active)
4. 152% (active)
5. 135% (active)

---

Target: Potassium voltage-gated channel subfamily KQT member 1 (Homo sapiens)
Assay: KCNQ1 potassium channel potentiators, confirmation, FluxOR thallium flux, CHO cells, duplicates (AID 493007);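 on outcome: cells depolarized by a potassium plus thallium sulfate stimulus after compound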
Details: KCNQ1 cell line, FluxOR thallium flux fluorescence, at 10 µM, % of reference activator effect, buffer zero
The source made the active and inactive calls.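 The calls were made as follows: active = potentiation averaged over duplicate wells exceeding buffer-only control mean by more than 3 SD; inactive = the rest.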
Your response should consist of one outcome taken from true (1) (active), false (0) (inactive)

See these solved cases before continuing.
> print(dat)
                                   compound  label.class
1  Cc1cc(O)ccc1N=Cc1c(C(F)(F)F)[nH][nH]c1=O    false (0)
2  CC[C@@H](C(=O)[C@@H](C)[C@@H](O)[C@H](C)CCc1ccc(C)c(O)c1C(=O)O)[C@H]1O[C@](CC)([C@H]2CC[C@](O)(CC)[C@H](C)O2)C[C@@H]1C     true (1)
3         COc1ccc(C)cc1N=Nc1ccc(O)c2ncccc12    false (0)
4        CN(C(=S)NC(=O)c1ccc(F)cc1)C1CCCCC1     true (1)
5  CC1CCCCN1CCCNC(=O)Cn1ncc2c([nH]c3ccccc32)c1=O (stereo not given)    false (0)
6  O=C1c2ccccc2NC(c2ccccc2O)N1O (stereo not given)     true (1)

Q: What is the recorded call for this compound in the test? O=C(NNC(=O)c1cc(-c2ccccc2)nn1-c1ccccc1)c1ccccc1
Ans: false (0)

Q: What is the recorded call for this compound in the test? O=[N+]([O-])c1ccc(/C=C/C2=NN(c3ccccc3)C(c3ccco3)C2)o1 (stereo not given)
Ans: false (0)

Q: What is the recorded call for this compound in the test? S=C(Nc1ccc(Cl)cc1)c1nc2ccccc2s1
Ans: true (1)

Q: What is the recorded call for this compound in the test? CC(C)CCn1c(SCC(=O)NC2CC2)nc2cc(Cl)ccc2c1=O
Ans: false (0)
